measuredTarget: C-C chemokine receptor type 2 (Homo sapiens)
Sequence (P41597 whole entry, looked up): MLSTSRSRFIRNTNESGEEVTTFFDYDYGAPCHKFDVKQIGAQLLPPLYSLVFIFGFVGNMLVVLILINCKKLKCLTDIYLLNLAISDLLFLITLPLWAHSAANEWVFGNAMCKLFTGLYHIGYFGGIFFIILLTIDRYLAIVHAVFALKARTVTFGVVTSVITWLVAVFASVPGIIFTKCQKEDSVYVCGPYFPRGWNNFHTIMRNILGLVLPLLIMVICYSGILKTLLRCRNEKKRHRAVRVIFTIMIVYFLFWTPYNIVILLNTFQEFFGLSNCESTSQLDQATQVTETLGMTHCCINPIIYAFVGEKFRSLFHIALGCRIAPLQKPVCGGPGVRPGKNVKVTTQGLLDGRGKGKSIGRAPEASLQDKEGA
experiment: Displacement of [125I]MCP1 from CCR2 in human PBMCs at 1 uM
testReadout: Activity (%)
API: value field is a number in %; no unit string.

Reference set, count: 4
{"compound": "CSc1ccc(C(=O)NC2CCC(NC(=O)OCc3ccccc3)CC2NC(=O)CNC(=O)c2cccc(C(F)(F)F)c2)cc1 (racemic)", "resultUnits": "%", "measuredValue": 0}
{"compound": "CSc1ccc(C(=O)NC2CCC(NC(=O)OCc3ccccc3)CC2NC(=O)CNC(=O)c2cc(C(F)(F)F)ccc2N)cc1 (racemic)", "resultUnits": "%", "measuredValue": 3.1}
{"compound": "CSc1ccc(C(=O)NC2CCC(N)CC2NC(=O)CNC(=O)c2cc(C(F)(F)F)ccc2N)cc1 (racemic)", "resultUnits": "%", "measuredValue": 28.1}
{"compound": "CSc1ccc(C(=O)NC2CC(NC(C)C)CCC2NC(=O)CNC(=O)c2cccc(C(F)(F)F)c2)cc1 (racemic)", "resultUnits": "%", "measuredValue": 31.4}

Prompt line: Look up Activity for this compound: CSc1ccc(C(=O)NC2CC(NC(=O)OCc3ccccc3)CCC2NC(=O)CNC(=O)c2cccc(C(F)(F)F)c2)cc1 (racemic; form 1)
Response line: 14

Prompt line: Look up Activity for this compound: CSc1ccc(C(=O)NC2CCC(N)CC2NC(=O)CNC(=O)c2cccc(C(F)(F)F)c2)cc1 (racemic)
Response line: 13
